Ki, IMP-1 (Serratia marcescens, UniProt P52699): measured values
Give bare numbers, in nM.

The following compounds have reported results that may help.
smiles_string | measured_number
O=C(O)c1nc(C(F)(F)F)sc1NS(=O)(=O)Cc1ccccc1Cl | 1200
CN(Cc1ccccc1)S(=O)(=O)Nc1scnc1C(=O)O | 120

Attention now shifts to the item below.
Exercise: Find the measured Ki of CN(c1ccccc1)S(=O)(=O)Nc1scnc1C(=O)O and report it.
Key: 580

----------
Molecular target: IMP-1 (Serratia marcescens, UniProt P52699)
Sequence (P52699 19-246, species assumed): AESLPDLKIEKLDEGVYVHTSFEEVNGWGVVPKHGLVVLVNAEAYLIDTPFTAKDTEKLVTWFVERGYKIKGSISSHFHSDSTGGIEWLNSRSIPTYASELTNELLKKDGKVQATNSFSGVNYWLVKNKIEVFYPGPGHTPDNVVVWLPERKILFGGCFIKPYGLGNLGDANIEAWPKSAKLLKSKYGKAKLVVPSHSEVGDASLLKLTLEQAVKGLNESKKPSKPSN
Please provide measured Ki for the entries that follow.
Answers are plain numbers, in nM.

Kindly give each listed record's Ki.
1. O=C(O)c1ncsc1NS(=O)(=O)c1ccccc1
2. N[C@@H](C(=O)N1CCC(c2ccc(S(=O)(=O)Nc3scnc3C(=O)O)cc2)CC1)c1ccccc1 [Compound 173]
3. O=C(O)c1ncsc1NS(=O)(=O)c1ccc(-c2ccccc2)s1
4. CC(=O)Nc1ccc(S(=O)(=O)Nc2scnc2C(=O)O)cc1
5. O=C(O)c1ncsc1NS(=O)(=O)Cc1ccccc1

Key:
[80, 330, 100, 50, 50]

----------
pKi, IMP-1 (Serratia marcescens): measured values
Numbers only, as −log10 of the molar value.

compound | pKi
O=C(O)c1ncsc1NS(=O)(=O)CCc1ccccc1 | 7.52
N[C@@H](C(=O)N1CCC(c2ccc(S(=O)(=O)Nc3scnc3C(=O)O)cc2)CC1)c1ccccc1 [Compound 172] | 6.12
O=C(O)c1ncsc1NS(=O)(=O)CCN1C(=O)c2ccccc2C1=O | 5.77
O=C(O)c1nc(-c2ccccc2)sc1NS(=O)(=O)c1ccccc1 | 7.15

Attention now shifts to the item below.
Exercise: Find the measured pKi of O=C(O)c1ncsc1NS(=O)(=O)c1csc2ccccc12 and report it.
Key: 7.10

----------
pKi, UniProt C7C422: measured values
Sequence (C7C422 29-270 limits assumed): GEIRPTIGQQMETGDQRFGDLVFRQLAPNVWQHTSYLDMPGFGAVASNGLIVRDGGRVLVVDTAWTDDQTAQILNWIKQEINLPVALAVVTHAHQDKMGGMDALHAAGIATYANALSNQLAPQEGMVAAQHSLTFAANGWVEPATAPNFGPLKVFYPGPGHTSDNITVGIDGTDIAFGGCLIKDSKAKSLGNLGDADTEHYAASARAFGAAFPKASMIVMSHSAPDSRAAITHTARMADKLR
Answers are plain numbers, as −log10 of the molar value.

The following compounds have reported results that may help.
compound | target_under_test | pKi
CN(c1ccccc1)S(=O)(=O)Nc1scnc1C(=O)O [Compound 88] | UniProt C7C422 | 6.00
CC(c1ccccc1)S(=O)(=O)Nc1scnc1C(=O)O (centres unmarked) [Compound 60] | UniProt C7C422 | 6.10

Kindly give each listed record's pKi.
1. O=C(O)c1ncsc1NS(=O)(=O)c1ccc(OC2CCNC2)cc1 (centres unmarked) [Compound 163]
2. O=C(O)c1ncsc1NS(=O)(=O)N1CCCCC1 [Compound 75]

Key:
1. 6.43
2. 5.68

Exercise: Find the measured pKi of O=C(O)c1ncsc1NS(=O)(=O)CC1CCOCC1 [Compound 111] and report it.
Key: 5.55

----------
Target: UniProt:C7C422
pKi: −log10 of the molar value.
Please mark True if the recorded pKi is equal to or greater than 6, and False if it falls below.

The examples below pair each entry with its known result.
compound | class_label
Cc1nc(C(=O)O)c(NS(=O)(=O)Cc2ccccc2)s1 [Compound 50] | False
CC(=O)Nc1ccc(S(=O)(=O)Nc2scnc2C(=O)O)cc1 [Compound 78] | True
O=C(O)c1ncsc1NS(=O)(=O)Cc1cccnc1 [Compound 170] | False
N[C@@H](C(=O)N1CCC(c2ccc(S(=O)(=O)Nc3scnc3C(=O)O)cc2)CC1)c1ccccc1 [Compound 173] | True
O=C(O)c1ncsc1NS(=O)(=O)CCN1C(=O)c2ccccc2C1=O [Compound 63] | True

Pending compound:
Exercise: Entry O=C(O)c1ncsc1NS(=O)(=O)c1ccc(N2CCCCC2)nc1 [Compound 138] : is its pKi no less than 6?
Key: True

The reported numbers originate from patent US9914712B2.
